Test system: Mycobacterium tuberculosis
TEST: Inhibition of Mycobacterium tuberculosis GyrA/GyrB using relaxed pBR322 as substrate at 0.97 uM after 30 mins by DNA supercoiling assay
Each entry below lists one item and its recorded inhibition value.
RESULT_TYPE: inhibition

# SMILES, TARGET_OR_TEST_SYSTEM, RESULT
records = [
    ("CC(=O)c1ccc(NC(=O)NC2CCN(CCn3c(=O)ccc4ncc(F)cc43)CC2)cc1", "Mycobacterium tuberculosis", "> 71%"),
    ("O=C(NCc1ccccc1)NC1CCN(CCn2c(=O)ccc3ncc(F)cc32)CC1", "Mycobacterium tuberculosis", "> 91%"),
    ("COc1ccc(CNC(=S)NC2CCN(CCn3c(=O)ccc4ncc(OC)cc43)CC2)cc1", "Mycobacterium tuberculosis", "> 96%"),
    ("COc1cnc2ccc(=O)n(CCN3CCC(NC(=O)Nc4ccc(C(C)=O)cc4)CC3)c2c1", "Mycobacterium tuberculosis", "> 85%"),
    ("CO[C@@H]1[C@@H](OC(N)=O)[C@@H](O)[C@H](Oc2ccc3c(O)c(NC(=O)c4ccc(O)c(CC=C(C)C)c4)c(=O)oc3c2C)OC1(C)C", "Mycobacterium tuberculosis", "> 61%"),
    ("COc1ccc(NC(=S)NC2CCN(CCn3c(=O)ccc4ncc(F)cc43)CC2)cc1", "Mycobacterium tuberculosis", "> 65%"),
    ("CC[C@@H](CO)NCCN[C@@H](CC)CO", "Mycobacterium tuberculosis", "> 62%"),
    ("COc1ccc(NC(=O)NC2CCN(CCn3c(=O)ccc4ncc(F)cc43)CC2)cc1", "Mycobacterium tuberculosis", "> 72%"),
    ("COc1cnc2ccc(=O)n(CCN3CCC(NC(=S)Nc4ccc(C(C)=O)cc4)CC3)c2c1", "Mycobacterium tuberculosis", "> 78%"),
]
